- Tested on: Escherichia coli ATCC 25922
READOUT_NAME: MIC

[Q] Could you tell me which MIC is on file for CC(C)C[C@H](NC(=O)CNC(=O)[C@H](CO)NC(=O)CNC(=O)[C@H](CCCN=C(N)N)NC(=O)[C@H](CCCN=C(N)N)NC(=O)CN)C(=O)NCC(=O)N[C@@H](CCCN=C(N)N)C(=O)N[C@@H](CO)C(=O)N[C@@H](CO)C(=O)N[C@@H](CO)C(=O)N[C@@H](CCCN=C(N)N)C(=O)NCC(=O)N[C@@H](CCC(N)=O)C(=O)N[C@@H](CCCN=C(N)N)C(=O)NCC(=O)N[C@@H](CO)C(=O)NCC(=O)N[C@@H](CO)C(=O)NCC(=O)N[C@@H](CCCN=C(N)N)C(=O)O [GRRGSGLGRSSSRGQRGSGSGR] ?
[A] > 14.7 µM
